// reported composite z-score for each item listed
# Test target: Neurogenic locus notch homolog protein 2 (Homo sapiens) (UniProt Q04721)
# Sequence (Q04721 whole entry, looked up): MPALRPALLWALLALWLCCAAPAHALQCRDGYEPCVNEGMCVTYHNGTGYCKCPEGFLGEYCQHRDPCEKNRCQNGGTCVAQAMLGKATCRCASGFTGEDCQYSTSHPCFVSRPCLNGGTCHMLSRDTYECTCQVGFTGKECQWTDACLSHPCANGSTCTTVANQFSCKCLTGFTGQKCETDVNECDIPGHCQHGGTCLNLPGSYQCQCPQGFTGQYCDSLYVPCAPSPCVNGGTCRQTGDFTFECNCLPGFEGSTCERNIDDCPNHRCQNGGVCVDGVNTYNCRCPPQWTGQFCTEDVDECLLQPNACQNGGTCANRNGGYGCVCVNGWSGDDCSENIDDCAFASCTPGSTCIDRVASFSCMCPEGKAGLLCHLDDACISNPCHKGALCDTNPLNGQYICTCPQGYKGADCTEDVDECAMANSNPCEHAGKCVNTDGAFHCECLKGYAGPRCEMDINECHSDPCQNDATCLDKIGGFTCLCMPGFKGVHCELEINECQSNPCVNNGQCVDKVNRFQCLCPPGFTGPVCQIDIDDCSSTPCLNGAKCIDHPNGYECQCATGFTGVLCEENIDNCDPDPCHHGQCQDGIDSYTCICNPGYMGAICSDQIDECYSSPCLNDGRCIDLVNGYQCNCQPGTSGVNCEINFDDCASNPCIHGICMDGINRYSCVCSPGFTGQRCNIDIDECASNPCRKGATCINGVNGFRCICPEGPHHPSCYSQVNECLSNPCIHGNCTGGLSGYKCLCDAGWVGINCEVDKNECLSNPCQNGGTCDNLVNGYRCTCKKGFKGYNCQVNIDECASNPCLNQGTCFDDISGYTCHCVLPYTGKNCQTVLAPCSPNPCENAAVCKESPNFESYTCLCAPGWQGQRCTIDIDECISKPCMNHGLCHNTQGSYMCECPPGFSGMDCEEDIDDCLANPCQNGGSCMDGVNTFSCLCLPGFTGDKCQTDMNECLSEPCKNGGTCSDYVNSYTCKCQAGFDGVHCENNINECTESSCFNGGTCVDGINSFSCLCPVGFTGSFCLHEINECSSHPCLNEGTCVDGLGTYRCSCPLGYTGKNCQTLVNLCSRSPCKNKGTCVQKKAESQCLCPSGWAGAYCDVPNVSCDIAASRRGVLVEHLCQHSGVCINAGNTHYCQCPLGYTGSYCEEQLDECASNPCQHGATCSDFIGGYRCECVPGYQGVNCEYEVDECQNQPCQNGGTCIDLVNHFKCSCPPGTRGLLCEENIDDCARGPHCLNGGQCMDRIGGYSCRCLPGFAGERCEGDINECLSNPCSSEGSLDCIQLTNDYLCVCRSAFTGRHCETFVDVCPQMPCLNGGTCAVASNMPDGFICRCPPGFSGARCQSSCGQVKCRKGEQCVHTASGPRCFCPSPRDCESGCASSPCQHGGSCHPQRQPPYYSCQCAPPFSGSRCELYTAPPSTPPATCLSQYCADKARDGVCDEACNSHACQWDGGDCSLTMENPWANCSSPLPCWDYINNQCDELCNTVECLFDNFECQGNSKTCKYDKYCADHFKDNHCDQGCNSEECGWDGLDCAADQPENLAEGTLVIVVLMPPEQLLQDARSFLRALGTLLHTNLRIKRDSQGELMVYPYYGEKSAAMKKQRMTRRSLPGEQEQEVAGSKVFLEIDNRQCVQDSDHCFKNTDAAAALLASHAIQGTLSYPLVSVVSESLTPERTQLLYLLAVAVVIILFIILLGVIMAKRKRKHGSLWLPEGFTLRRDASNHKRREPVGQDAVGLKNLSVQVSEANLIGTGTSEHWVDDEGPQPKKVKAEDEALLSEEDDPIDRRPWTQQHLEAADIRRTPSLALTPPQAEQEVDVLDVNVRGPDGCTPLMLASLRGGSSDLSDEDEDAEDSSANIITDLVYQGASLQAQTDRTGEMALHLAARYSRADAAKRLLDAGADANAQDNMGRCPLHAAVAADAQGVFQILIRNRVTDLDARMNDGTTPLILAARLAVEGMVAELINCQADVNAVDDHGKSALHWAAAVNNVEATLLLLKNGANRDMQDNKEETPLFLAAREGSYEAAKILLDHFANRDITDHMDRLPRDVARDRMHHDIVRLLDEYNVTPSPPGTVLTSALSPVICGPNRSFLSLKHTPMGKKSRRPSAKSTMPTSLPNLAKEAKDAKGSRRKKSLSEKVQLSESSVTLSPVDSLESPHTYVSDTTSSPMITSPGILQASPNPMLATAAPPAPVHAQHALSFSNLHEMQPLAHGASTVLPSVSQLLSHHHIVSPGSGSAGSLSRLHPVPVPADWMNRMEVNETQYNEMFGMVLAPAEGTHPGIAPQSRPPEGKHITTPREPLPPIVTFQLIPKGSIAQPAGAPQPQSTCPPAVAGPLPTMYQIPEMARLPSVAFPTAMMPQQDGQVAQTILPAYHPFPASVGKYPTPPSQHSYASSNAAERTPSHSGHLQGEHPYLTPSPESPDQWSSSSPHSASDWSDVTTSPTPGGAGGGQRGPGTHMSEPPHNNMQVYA
# Assay summary: Notch2 binders on small-molecule microarrays, primary screen, biochemical, small-molecule microarray, 635 nm fluorescence, stem cell growth factors (AID 1073)
# Condition summary: Notch2 binding, higher = more signal
Assay endpoint: composite z-score

>>> recorded_number("COC(=O)[C@@H]1CC[C@H](C)[C@@H](c2ccc(Br)cc2)N1C[C@@H](O)CN=[N+]=[N-]")
0.462
>>> recorded_number("CC(=O)OC[C@H]1O[C@H](CC=NO[C@@H](C)c2cc(-c3c(C)cc(C)cc3C)no2)C=C[C@@H]1OC(C)=O")
0.0166
>>> recorded_number("C[C@H]1CC[C@H]2C(=O)OC(COc3ccc(C(C)(C)C)cc3)CN2[C@@H]1c1ccc(Br)cc1 (some centres not stated)")
-0.123
>>> recorded_number("O=C1[C@H]2[C@H]3[C@H](O)[C@H](O)CC(=NO[C@@H]4O[C@H](CO)[C@@H](O)[C@H](O)[C@H]4O)[C@H]3CC[C@H]2C(=O)N1C[C@@H]1CCCO1")
0.57
>>> recorded_number("O=C1[C@H]2[C@H]3[C@H](O)[C@H](O)CC(=NO[C@@H]4O[C@H](CO)[C@@H](O)[C@H](O)[C@H]4O)[C@@H]3CC[C@H]2C(=O)N1C1CCCCC1")
0.598
>>> recorded_number("CC(CCN1CCCc2nc(C)c(C)cc21)=NO[C@@H](C)c1cn([C@H](CO)Cc2ccccc2)nn1")
0.414
>>> recorded_number("CCOC(=O)[C@H](Cc1ccccc1)NC(=O)CCC1CC(OC(=O)NCc2ccc3c(c2)OCO3)CC2(CCCC(COC(=O)NCCOc3ccccc3)O2)O1 (some centres not stated)")
0.896
